Examples of compounds with documented pIC50 follow.
- Target Of Assay: NLRP3 inflammasome (Homo sapiens)
- Method Notes: IL-1β assay in IFN-γ-differentiated, LPS-primed, ATP-activated THP-1 cells (ELISA)
- Condition Summary: 50 ng/mL LPS priming, 2.5 mM ATP activation, 2 hours
The scale used: pIC50 is minus the common logarithm of the concentration in molar units.

Could you share which pIC50 value was measured for CN1CCCC(Nc2nnc(-c3ccccc3)c3ccccc23)C1 (stereo not drawn) [Example 42] ?
5.94

Request the reported pIC50 associated with COc1ccc(-c2nnc(N[C@@H]3C[C@@H](F)CN(C)C3)c3c2COCC3)c(C(F)F)c1 [Example 208]
6.07

----------
Listing of recorded log10 of IC50 by entry.
- Target Of Assay: NLRP3 inflammasome (Homo sapiens, UniProt Q96P20)
- Sequence (Q96P20 whole entry): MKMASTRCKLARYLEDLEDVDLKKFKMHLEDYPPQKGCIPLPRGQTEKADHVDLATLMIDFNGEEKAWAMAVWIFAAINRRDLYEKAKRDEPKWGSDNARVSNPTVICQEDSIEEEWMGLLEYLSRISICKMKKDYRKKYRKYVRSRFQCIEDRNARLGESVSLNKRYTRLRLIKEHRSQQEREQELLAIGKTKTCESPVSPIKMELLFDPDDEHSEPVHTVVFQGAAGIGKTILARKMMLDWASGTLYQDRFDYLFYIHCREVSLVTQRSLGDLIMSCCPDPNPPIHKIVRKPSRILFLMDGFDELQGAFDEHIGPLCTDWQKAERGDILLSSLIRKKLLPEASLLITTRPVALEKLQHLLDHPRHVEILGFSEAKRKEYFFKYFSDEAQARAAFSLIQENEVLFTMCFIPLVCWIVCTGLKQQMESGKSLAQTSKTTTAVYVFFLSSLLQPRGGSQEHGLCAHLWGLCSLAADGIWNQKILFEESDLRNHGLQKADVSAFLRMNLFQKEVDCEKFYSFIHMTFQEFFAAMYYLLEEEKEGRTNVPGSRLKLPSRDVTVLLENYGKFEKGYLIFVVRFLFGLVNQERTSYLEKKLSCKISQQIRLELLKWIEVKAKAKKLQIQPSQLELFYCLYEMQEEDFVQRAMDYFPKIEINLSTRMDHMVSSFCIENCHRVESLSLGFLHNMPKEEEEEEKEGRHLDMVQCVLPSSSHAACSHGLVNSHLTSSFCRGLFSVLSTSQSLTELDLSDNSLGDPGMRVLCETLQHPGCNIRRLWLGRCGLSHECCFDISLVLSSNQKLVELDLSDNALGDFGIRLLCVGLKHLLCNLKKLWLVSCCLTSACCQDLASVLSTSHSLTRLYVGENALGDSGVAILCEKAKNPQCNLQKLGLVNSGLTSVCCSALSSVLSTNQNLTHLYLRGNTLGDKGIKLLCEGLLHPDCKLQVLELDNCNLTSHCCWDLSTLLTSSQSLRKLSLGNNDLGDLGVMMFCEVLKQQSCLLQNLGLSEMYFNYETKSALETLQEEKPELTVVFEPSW
- Method Notes: IL-1β assay in IFN-γ-differentiated, LPS-primed, ATP-activated THP-1 cells (ELISA)
- Condition Summary: 50 ng/mL LPS priming, 2.5 mM ATP activation, 2 hours
Transform log10 | Measure IC50 | Unit nM

Here is how some molecules turned out for log10 of IC50.
Molecule	log10 of IC50
COc1ccc(-c2nnc(N[C@@H]3CCCN(CCF)C3)c3cnccc23)cc1	1.90
CN1CCC[C@@H](Nc2nnc(-c3ccc(Cl)cc3F)c3ccncc23)C1	1.66
CN1CCCC(N(C)c2nnc(-c3ccc(Cl)cc3)c3ccccc23)C1 (stereo not drawn)	3.63
COc1ccc(-c2nnc(NC3CCCN(C)C3)c3ccccc23)cc1 (stereo not drawn)	2.44
CC1(O)CCCC(Nc2nnc(-c3ccc(Cl)cc3)c3ccccc23)C1 (stereo not drawn)	3.05

Look up log10 of IC50 for this molecule: COc1cc(Cl)ccc1-c1nnc(NC2CCCN(C)C2)c2cnccc12 (stereo not drawn)
2.84

Value lookup for log10 of IC50; key = FC(F)(F)CN1CCCC(Nc2nnc(-c3ccc(Cl)cc3)c3ccccc23)C1 (stereo not drawn)
3.17

----------
In this section we review reported Papp A→B at 60 min, 1 µM values for a set of compounds.
- Target Of Assay: MDR1 (P-gp) (Homo sapiens, UniProt P08183)
- Construct: expressed in transfected cells; host or cells: Madin-Darby Canine Kidney (MDCK) cells
- Sequence (P08183 whole entry, species assumed): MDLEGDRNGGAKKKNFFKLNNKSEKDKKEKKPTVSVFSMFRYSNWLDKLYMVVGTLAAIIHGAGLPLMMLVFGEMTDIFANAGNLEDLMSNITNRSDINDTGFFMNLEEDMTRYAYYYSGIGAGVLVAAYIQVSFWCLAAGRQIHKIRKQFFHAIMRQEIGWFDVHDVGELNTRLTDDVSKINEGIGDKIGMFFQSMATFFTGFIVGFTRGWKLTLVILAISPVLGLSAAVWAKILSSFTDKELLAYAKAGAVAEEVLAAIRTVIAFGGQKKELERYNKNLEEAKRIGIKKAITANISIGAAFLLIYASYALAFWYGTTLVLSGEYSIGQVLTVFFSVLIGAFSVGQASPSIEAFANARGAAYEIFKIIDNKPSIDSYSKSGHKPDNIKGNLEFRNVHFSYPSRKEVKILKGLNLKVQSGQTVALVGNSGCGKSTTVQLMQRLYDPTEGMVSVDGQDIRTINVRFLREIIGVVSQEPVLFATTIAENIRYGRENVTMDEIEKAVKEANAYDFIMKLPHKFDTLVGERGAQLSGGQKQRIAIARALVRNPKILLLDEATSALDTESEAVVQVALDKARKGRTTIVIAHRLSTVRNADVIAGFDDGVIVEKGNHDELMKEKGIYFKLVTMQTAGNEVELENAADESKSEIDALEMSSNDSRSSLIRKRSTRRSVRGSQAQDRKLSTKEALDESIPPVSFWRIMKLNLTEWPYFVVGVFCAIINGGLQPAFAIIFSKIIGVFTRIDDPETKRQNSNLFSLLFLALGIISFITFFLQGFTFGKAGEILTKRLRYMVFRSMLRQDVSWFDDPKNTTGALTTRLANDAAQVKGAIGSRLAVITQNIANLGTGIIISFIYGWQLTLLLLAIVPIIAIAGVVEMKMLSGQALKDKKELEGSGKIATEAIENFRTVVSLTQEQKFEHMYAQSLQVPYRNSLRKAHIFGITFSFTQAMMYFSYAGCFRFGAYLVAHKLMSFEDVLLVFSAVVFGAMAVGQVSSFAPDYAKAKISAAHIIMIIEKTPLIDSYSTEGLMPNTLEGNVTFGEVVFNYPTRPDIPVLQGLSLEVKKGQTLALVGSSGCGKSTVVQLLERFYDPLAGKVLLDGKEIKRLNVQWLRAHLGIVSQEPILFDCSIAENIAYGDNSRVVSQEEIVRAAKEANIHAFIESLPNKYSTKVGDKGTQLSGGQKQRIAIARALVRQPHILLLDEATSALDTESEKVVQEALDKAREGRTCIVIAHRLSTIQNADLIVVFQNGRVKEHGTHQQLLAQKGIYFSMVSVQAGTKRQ
- Method Notes: MDCK-MDR1 assay (apparent permeability and efflux ratio)
- Type: in vitro ADME
- Condition Summary: dog; MDCK-MDR1 monolayer, apical to basolateral, pH 7.4, 60 minutes
Answer with the number, then the unit.

Example cases with answers are listed next.
Compound	Papp A→B at 60 min, 1 µM
Cc1ccc(-c2nnc(N[C@@H]3C[C@@H](F)CN(C)C3)c3c2CCOC3)c(O)c1 [Example 220]	1.5 ×10⁻⁶ cm/s
CN1CCC[C@@H](Nc2nnc(-c3ccccc3O)c3c2COCC3)C1 [Example 226]	1.3 ×10⁻⁶ cm/s
CN1C[C@H](F)C[C@@H](Nc2nnc(-c3ccc(F)cc3O)c3c2COCC3)C1 [Example 219]	4.7 ×10⁻⁶ cm/s
Cc1ccc(-c2nnc(N[C@@H]3CCCC[C@H]3O)c3c2CCOC3)c(O)c1 [Example 229]	1 ×10⁻⁶ cm/s

Moving on to the next compound.
// lookup Papp A→B at 60 min, 1 µM for Cc1ccc(-c2nnc(N[C@@H]3C[C@@H](F)CN(C)C3)c3c2COCC3)c(O)c1 [Example 201]
1.7 ×10⁻⁶ cm/s

----------
Listed compounds paired with reported efflux ratio at 60 min, 1 µM
- Target Of Assay: MDR1 (P-gp) (Homo sapiens, UniProt P08183)
- Construct: expressed in transfected cells; host or cells: Madin-Darby Canine Kidney (MDCK) cells
- Method Notes: MDCK-MDR1 assay (apparent permeability and efflux ratio)
- Assay type: in vitro ADME
- Condition Summary: dog, pH 7.4; MDCK-MDR1, P-gp mediated efflux ratio; read-out: MDR1 ER
Answer with a bare number; do not write a unit.

# example entries with known answers
Structure Notation	Recorded Result
Cc1ccc(-c2nnc(N[C@@H]3CCCC[C@H]3O)c3c2COCC3)c(O)c1	7
CN1C[C@H](F)C[C@@H](Nc2nnc(-c3ccc(C4CC4)cc3O)c3c2COCC3)C1	41
COCCN1CCC[C@@H](Nc2nnc(-c3ccc(C)cc3O)c3c2COCC3)C1	25

Field request: efflux ratio at 60 min, 1 µM | item: `Cc1ccc(-c2nnc(N[C@@H]3C[C@@H](F)CN(C)C3)c3c2CCOC3)c(O)c1`
9

----------
- Target Of Assay: NLRP3 inflammasome (Homo sapiens)
- Method Notes: IL-1β assay in IFN-γ-differentiated, LPS-primed, ATP-activated THP-1 cells (ELISA)
- Condition Summary: 50 ng/mL LPS priming, 2.5 mM ATP activation, 2 hours
Quantity Kind: IC50
Hey, just the number and the unit after it is fine.

Compound	IC50
COc1ccc(-c2nnc(N[C@@H]3C[C@@H](F)CN(C)C3)c3c2CCOC3)c(F)c1	160 nM
Clc1ccc(-c2nnc(NC3CN4CCC3CC4)c3ccccc23)cc1 (centres unmarked)	372 nM
CN1C[C@H](F)C[C@@H](Nc2nnc(-c3ccc(Cl)cc3)c3ccncc23)C1	110 nM
COc1ccc(-c2nnc(Nc3cccc(O)c3)c3cnccc23)cc1	3020 nM

Please provide the recorded IC50 for CS(=O)(=O)N1CCCC(Nc2nnc(-c3ccc(Cl)cc3)c3ccccc23)C1 (centres unmarked) , tested on NLRP3 inflammasome (Homo sapiens).
1050 nM

Give IC50 (NLRP3 inflammasome (Homo sapiens)) of the following compound: CN1CCCC(Nc2nnc(-c3ccc(Cl)cc3Cl)c3ccncc23)C1 (centres unmarked)
158 nM

Lab request: please report IC50 under test system NLRP3 inflammasome (Homo sapiens) for `CN1C[C@H](F)C[C@@H](Nc2nnc(-c3ccc(F)cc3O)c3c2COCC3)C1`
8 nM

Enter reported IC50 observed with NLRP3 inflammasome (Homo sapiens) for `COc1ccc(-c2nnc(N[C@@H]3C[C@@H](F)CN(C)C3)c3cnccc23)c(F)c1`
136 nM

Short answer please: IC50, NLRP3 inflammasome (Homo sapiens), entry CN1CCCC(Nc2nnc(-c3ccc(Cl)cc3)c3cnccc23)C1 (centres unmarked)
3550 nM

Any idea what IC50 came out for COc1ccc(-c2nnc(NC3CCCN(CCF)C3)c3ccccc23)cc1 (centres unmarked) on NLRP3 inflammasome (Homo sapiens)?
269 nM

Find IC50 (NLRP3 inflammasome (Homo sapiens)) for the entry CC(=O)N1CCCC(Nc2nnc(-c3ccc(Cl)cc3)c3ccccc23)C1 (centres unmarked)
4480 nM

NLRP3 inflammasome (Homo sapiens) / IC50 / `CN1C[C@H](F)C[C@@H](Nc2nnc(-c3ccc(Cl)cc3F)c3ccccc23)C1` : value?
37 nM

Look up IC50 with NLRP3 inflammasome (Homo sapiens) for this compound: `COc1ccc(-c2nnc(Nc3cccc(O)c3)c3ccncc23)cc1`
394 nM

Kindly state the measured IC50 obtained for COc1ccc(-c2nnc(N(C)C3CCCN(C)C3)c3ccccc23)cc1 (centres unmarked) with NLRP3 inflammasome (Homo sapiens).
4120 nM

Form entry - test system: NLRP3 inflammasome (Homo sapiens); read-out: IC50; compound: `COc1ccc(-c2nnc(N[C@@H]3CCCN(C)C3)c3c(C)nccc23)c(O)c1`
183 nM

Quick check: IC50 on NLRP3 inflammasome (Homo sapiens), item `CN1C[C@H](F)C[C@@H](Nc2nnc(-c3ccc(C(F)F)cc3O)c3c2COCC3)C1` ?
11 nM

Give the reported IC50 for CN1CCCC(Nc2nnc(-c3ccc(Cl)cc3F)c3ccccc23)C1 (centres unmarked) (system: NLRP3 inflammasome (Homo sapiens)).
41 nM

// map O[C@]1(C(F)(F)F)CCC[C@@H](Nc2nnc(-c3ccc(Cl)cc3)c3ccccc23)C1 (racemic) [Example 114] to recorded IC50 (system: NLRP3 inflammasome (Homo sapiens))
1230 nM

Tell me reported IC50 for `F[C@H]1CNC[C@H](Nc2nnc(-c3ccc(Cl)cc3)c3ccccc23)C1` , tested with NLRP3 inflammasome (Homo sapiens).
648 nM

Report IC50 for Cc1cc2c(-c3ccc(Cl)cc3)nnc(NC3CCCN(C)C3)c2cn1 (centres unmarked) tested on NLRP3 inflammasome (Homo sapiens).
36 nM

----------
Listed molecules paired with reported pIC50
- Target Of Assay: UniProt:Q96P20
- Method Notes: IL-1β assay in IFN-γ-differentiated, LPS-primed, ATP-activated THP-1 cells (ELISA)
- Condition Summary: 50 ng/mL LPS priming, 2.5 mM ATP activation, 2 hours
# log scale: pIC50 equals minus log10 of the concentration in mol/L

Molecule	Target Of Assay	pIC50
COc1ccc(-c2nnc(Nc3cccc(O)c3)c3ccccc23)cc1 [Example 1]	UniProt:Q96P20	5.73
Oc1ccccc1Nc1nnc(-c2ccc(Cl)cc2)c2ccccc12 [Example 156]	UniProt:Q96P20	5.45
CN1C[C@H](F)C[C@@H](Nc2nnc(-c3ccc(Cl)cc3F)c3c2COCC3)C1 [Example 217]	UniProt:Q96P20	6.06
CCN1CCCC(Nc2nnc(-c3ccc(OC)cc3)c3ccccc23)C1 (stereo not drawn) [Example 171]	UniProt:Q96P20	7.17

Next up:
So what's the measured pIC50 for this one? COc1ccc(-c2nnc(N[C@@H]3C[C@@H](F)CN(C4CC4)C3)c3ccccc23)cc1 [Example 55]
6.24

These entries and their values trace back to patent US20250340563A1.
